This collection of values is drawn from patent US12227500B2.

Quick list: remaining activity at 0.1 µM per entry.
target: panel of 60 human kinases (Homo sapiens)
Construct: purchased Reaction Biology Corp
Sequence (P45983 whole entry): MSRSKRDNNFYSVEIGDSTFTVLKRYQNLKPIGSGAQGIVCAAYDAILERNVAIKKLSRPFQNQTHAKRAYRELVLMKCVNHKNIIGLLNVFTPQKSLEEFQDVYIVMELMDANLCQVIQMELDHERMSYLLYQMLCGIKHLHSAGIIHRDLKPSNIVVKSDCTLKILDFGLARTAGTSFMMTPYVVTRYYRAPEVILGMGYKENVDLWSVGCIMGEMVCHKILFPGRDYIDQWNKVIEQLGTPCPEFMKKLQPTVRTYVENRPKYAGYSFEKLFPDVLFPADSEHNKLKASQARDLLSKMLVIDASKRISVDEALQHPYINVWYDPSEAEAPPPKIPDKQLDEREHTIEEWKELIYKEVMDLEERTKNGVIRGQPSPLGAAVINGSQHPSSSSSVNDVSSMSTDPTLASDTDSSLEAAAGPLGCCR
protocol.description: Radiolabeled ATP kinase assay, panel of 60 kinases (Table S5)
Type: biochemical
run.conditions: JNK1; 0.1 μM; 10 μM ATP; read-out: % Enzyme Activity (relative to DSMO controls)

compound: CN1CCN(Cc2ccc(-c3cnc4[nH]cc(-c5ccncc5)c4c3)cc2)CC1
remaining activity at 0.1 µM / %: 85.5
--
compound: CN1CCN(Cc2ccc(-c3cnc4[nH]cc(-c5cnn(Cc6ccccc6)c5)c4c3)cc2)CC1
remaining activity at 0.1 µM / %: 18.6
--
compound: CN1CCN(Cc2ccc(-c3cnc4[nH]cc(-c5ccccc5Cl)c4c3)cc2)CC1
remaining activity at 0.1 µM / %: 74.6
--
compound: Cc1nn(C)c(C)c1-c1c[nH]c2ncc(-c3ccc(CN4CCN(C)CC4)cc3)cc12
remaining activity at 0.1 µM / %: 77.7
--
compound: CN1CCN(Cc2ccc(-c3cnc4[nH]cc(-c5cccc(Cl)c5)c4c3)cc2)CC1
remaining activity at 0.1 µM / %: 88.7
--
compound: CN1CCN(Cc2ccc(-c3cnc4[nH]cc(-c5ccc6c(c5)OCCO6)c4c3)cc2)CC1
remaining activity at 0.1 µM / %: 52.2
--
compound: COc1ccccc1-c1c[nH]c2ncc(-c3ccc(CN4CCN(C)CC4)cc3)cc12
remaining activity at 0.1 µM / %: 102
--
compound: CN1CCN(Cc2ccc(-c3cnc4[nH]cc(-c5ccc6[nH]ccc6c5)c4c3)cc2)CC1 [Compound 1, reference compound]
remaining activity at 0.1 µM / %: 75.3
--
compound: CN1CCN(Cc2ccc(-c3cnc4[nH]cc(-c5ccoc5)c4c3)cc2)CC1
remaining activity at 0.1 µM / %: 76.8

###

System: human ES motor neurons carrying the ALS-causing SOD1^A4V mutation
protocol.description: cells
Type: cell-based
run.conditions: Homo sapiens, Neuron, 72 h, CPA (33 μM) + compound (1 μM); read-out: Motor Neuron Survival, % untreated
Quick list: viability at 1 µM per entry.
assay.metric: viability at 1 µM (%)

structure.as.smiles: COc1ccccc1-c1c[nH]c2ncc(-c3ccc(CN4CCN(C)CC4)cc3)cc12
reported: 67.5
--
structure.as.smiles: CN1CCN(Cc2ccc(-c3cnc4[nH]cc(-c5cccc(OCc6ccccc6)c5)c4c3)cc2)CC1
reported: 37.4
--
structure.as.smiles: Cc1ccc(C)c(-c2c[nH]c3ncc(-c4ccc(CN5CCN(C)CC5)cc4)cc23)c1
reported: 38.6
--
structure.as.smiles: CN1CCN(Cc2ccc(-c3cnc4[nH]cc(-c5cnn(C)c5)c4c3)cc2)CC1
reported: 42.9

###

Quick list: remaining activity at 0.025 µM per entry.
target: HGK/MAP4K4 (Homo sapiens)
Sequence (O95819 whole entry): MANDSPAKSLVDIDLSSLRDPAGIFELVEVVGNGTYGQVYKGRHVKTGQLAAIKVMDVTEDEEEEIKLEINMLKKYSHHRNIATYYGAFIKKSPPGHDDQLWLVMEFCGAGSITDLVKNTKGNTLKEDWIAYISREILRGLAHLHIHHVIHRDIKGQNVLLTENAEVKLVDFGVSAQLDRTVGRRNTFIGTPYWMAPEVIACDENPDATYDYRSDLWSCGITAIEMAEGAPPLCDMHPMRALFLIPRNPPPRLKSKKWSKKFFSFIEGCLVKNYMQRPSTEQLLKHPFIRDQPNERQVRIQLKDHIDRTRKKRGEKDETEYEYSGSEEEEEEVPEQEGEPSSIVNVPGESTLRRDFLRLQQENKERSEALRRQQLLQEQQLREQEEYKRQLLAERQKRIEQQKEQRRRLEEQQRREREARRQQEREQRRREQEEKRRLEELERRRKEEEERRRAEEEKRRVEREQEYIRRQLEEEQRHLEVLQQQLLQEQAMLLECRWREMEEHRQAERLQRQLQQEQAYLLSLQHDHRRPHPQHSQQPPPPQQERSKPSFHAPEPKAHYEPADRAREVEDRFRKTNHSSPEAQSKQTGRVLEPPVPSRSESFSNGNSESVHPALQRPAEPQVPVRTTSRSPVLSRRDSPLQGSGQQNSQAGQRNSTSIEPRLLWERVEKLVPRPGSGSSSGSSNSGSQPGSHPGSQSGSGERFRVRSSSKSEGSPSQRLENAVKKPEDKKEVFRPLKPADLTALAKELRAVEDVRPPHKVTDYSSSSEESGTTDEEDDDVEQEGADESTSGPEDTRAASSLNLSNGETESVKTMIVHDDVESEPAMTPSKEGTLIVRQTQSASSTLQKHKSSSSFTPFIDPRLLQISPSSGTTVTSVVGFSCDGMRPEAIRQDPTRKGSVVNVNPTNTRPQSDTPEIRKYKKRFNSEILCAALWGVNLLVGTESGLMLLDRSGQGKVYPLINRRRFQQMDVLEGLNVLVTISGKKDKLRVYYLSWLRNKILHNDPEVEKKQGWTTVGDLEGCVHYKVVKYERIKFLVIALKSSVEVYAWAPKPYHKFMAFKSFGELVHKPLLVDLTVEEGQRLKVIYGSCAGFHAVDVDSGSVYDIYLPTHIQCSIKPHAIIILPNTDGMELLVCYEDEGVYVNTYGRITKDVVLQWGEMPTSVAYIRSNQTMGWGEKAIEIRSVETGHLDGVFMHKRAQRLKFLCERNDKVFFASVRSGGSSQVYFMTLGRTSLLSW
protocol.description: Radiolabeled ATP kinase assay (Reaction Biology Corp.), HGK
Assay type: biochemical
Parameters: purchased Reaction Biology Corp
run.conditions: [Cmpd] 0.025 μM; 10 μM ATP; read-out: % Enzyme Activity (relative to DMSO controls), HGK/MAP4K4, Data 1

molecule: CN1CCN(Cc2ccc(-c3cnc4[nH]cc(-c5cccc6[nH]ncc56)c4c3)cc2)CC1 [Compound 7aa]
remaining activity at 0.025 µM / %: 2.75
--
molecule: c1cc2cc(-c3c[nH]c4ncc(-c5ccc(CN6CC7CCC(C6)O7)cc5)cc34)ccc2[nH]1 [Compound 12a]
remaining activity at 0.025 µM / %: 72.8
--
molecule: C[C@@H](NC(=O)Nc1cccc(-c2c[nH]c3ncc(-c4ccc(CN5CCN(C)CC5)cc4)cc23)c1)c1ccccc1 [Compound 7ax]
remaining activity at 0.025 µM / %: 93.6
--
molecule: CN1CCN(Cc2ccc(-c3cnc4[nH]cc(-c5ccncc5)c4c3)cc2)CC1 [Compound 7n]
remaining activity at 0.025 µM / %: 65.7
